Recorded measurements of Ratio IC50, one per entry
Test: Selectivity ratio of IC50 for reduced carboxymethylated kappa-casein fibril formation to IC50 for beta amyloid (1 to 40) fibril formation
Answer as a number with no unit attached.

molecule=O=c1c(O)c(-c2ccc(O)c(O)c2)oc2cc(O)cc(O)c12 quantitative_result=20
molecule=O=c1c(O)c(-c2ccc(O)cc2O)oc2cc(O)cc(O)c12 quantitative_result=206
molecule="O=C(O[C@@H]1Cc2c(O)cc(O)cc2O[C@@H]1c1cc(O)c(O)c(O)c1)c1cc(O)c(O)c(O)c1 [EPIGALOCATECHIN GALLATE]" quantitative_result=20

Now look at this entry.
[in] Please report the recorded Ratio IC50 for O=c1c(O)c(-c2ccc(O)cc2)oc2cc(O)cc(O)c12 .
[out] 20

====

Recorded measurements of IC50, one per entry
Assay: Inhibition of beta amyloid (1 to 40) fibril formation by thioflavin T staining-based binding assay
The answer is to be given in nM; state only the numeric part.

compound="O=c1c(O)c(-c2cc(O)c(O)c(O)c2)oc2cc(O)cc(O)c12 [MYRICETIN]" units=nM quantitative_result=290
compound="O=c1c(O)c(-c2ccc(O)cc2O)oc2cc(O)cc(O)c12 [MORIN]" units=nM quantitative_result=240
compound="O=c1c(O)c(-c2ccc(O)cc2)oc2cc(O)cc(O)c12 [KAEMPFEROL]" units=nM quantitative_result=1700
compound="Oc1cc(O)c2c(c1)O[C@H](c1ccc(O)c(O)c1)[C@H](O)C2 [(-)-EPICATECHIN]" units=nM quantitative_result=2800
compound="Oc1cc(O)c2c(c1)O[C@H](c1ccc(O)c(O)c1)[C@@H](O)C2 [CIANIDANOL]" units=nM quantitative_result=2900

Now look at this entry.
[in] Please report the recorded IC50 for O=c1c(O)c(-c2ccc(O)c(O)c2)oc2cc(O)cc(O)c12 [QUERCETIN] .
[out] 240

====

Assay: Selectivity ratio of IC50 for reduced carboxymethylated kappa-casein fibril formation to IC50 for beta amyloid (1 to 42) fibril formation
Recorded measurements of Ratio IC50, one per entry

compound="O=c1c(O)c(-c2ccc(O)c(O)c2)oc2cc(O)cc(O)c12 [QUERCETIN]" result=10
compound="O=c1c(O)c(-c2ccc(O)cc2)oc2cc(O)cc(O)c12 [KAEMPFEROL]" result=10
compound="O=C(O[C@@H]1Cc2c(O)cc(O)cc2O[C@@H]1c1cc(O)c(O)c(O)c1)c1cc(O)c(O)c(O)c1 [EPIGALOCATECHIN GALLATE]" result=10

[in] Please report the recorded Ratio IC50 for O=c1c(O)c(-c2ccc(O)cc2O)oc2cc(O)cc(O)c12 [MORIN] .
[out] 74

====

Test: Inhibition of reduced carboxymethylated kappa-casein fibril formation measured every 5 mins after 1000 mins by thioflavin T staining-based binding assay
value_kind: pIC50
Answer as the number alone; pIC50 is minus log10 of concentration in mol/L.

compound=O=c1c(O)c(-c2ccccc2)oc2cc(O)cc(O)c12 value_kind=pIC50 quantitative_result=4.21
compound=O=c1c(O)c(-c2ccc(O)cc2O)oc2cc(O)cc(O)c12 value_kind=pIC50 quantitative_result=4.31
compound=O=c1c(O)c(-c2ccc(O)c(O)c2)oc2cc(O)cc(O)c12 value_kind=pIC50 quantitative_result=4.87
compound=CC(=O)Oc1cc(OC(C)=O)c2c(=O)c(OC(C)=O)c(-c3ccc(OC(C)=O)c(OC(C)=O)c3)oc2c1 value_kind=pIC50 quantitative_result=5.17
compound=O=c1c(O)c(-c2cc(O)c(O)c(O)c2)oc2cc(O)ccc12 value_kind=pIC50 quantitative_result=4.86
compound=O=c1c(O)c(-c2ccc(O)cc2)oc2cc(O)cc(O)c12 value_kind=pIC50 quantitative_result=4.48

[in] Please report the recorded pIC50 for O=C(O[C@@H]1Cc2c(O)cc(O)cc2O[C@@H]1c1cc(O)c(O)c(O)c1)c1cc(O)c(O)c(O)c1 [EPIGALOCATECHIN GALLATE] .
[out] 5.43

[in] Please report the recorded pIC50 for O=C1c2c(O)cc(O)cc2O[C@H](c2ccc(O)c(O)c2)[C@H]1O [(+)-TAXIFOLIN] .
[out] 4.40

[in] Please report the recorded pIC50 for O=c1c(-c2ccc(O)cc2)coc2cc(O)cc(O)c12 .
[out] 3.72

====

Recorded measurements of inhibition, one per entry
Assay: Inhibition of beta amyloid (1 to 42) fibril formation at 50 ug/mL by thioflavin T staining-based binding assay

The cases that follow already have their inhibition on record.
compound=O=c1c(O)c(-c2ccc(O)cc2O)oc2cc(O)cc(O)c12 value_kind=inhibition result=94%
compound=O=c1c(-c2ccc(O)cc2)coc2cc(O)cc(O)c12 value_kind=inhibition result=43%
compound=O=c1c(O)c(-c2ccc(O)c(O)c2)oc2cc(O)cc(O)c12 value_kind=inhibition result=95%
compound="O=C1c2c(O)cc(O)cc2O[C@H](c2ccc(O)c(O)c2)[C@H]1O [(+)-TAXIFOLIN]" value_kind=inhibition result=57%

[in] Please report the recorded inhibition for O=C(O[C@@H]1Cc2c(O)cc(O)cc2O[C@@H]1c1cc(O)c(O)c(O)c1)c1cc(O)c(O)c(O)c1 [EPIGALOCATECHIN GALLATE] .
[out] 100%

====

Recorded measurements of inhibition, one per entry
Experiment: Inhibition of reduced carboxymethylated kappa-casein fibril formation at 50 ug/mL measured every 5 mins after 1000 mins by thioflavin T staining-based binding assay
The answer is to be given in %; state only the numeric part.

molecule="O=c1c(-c2ccc(O)cc2)coc2cc(O)cc(O)c12 [GENISTEIN]" value_kind=inhibition quantitative_result=95
molecule=CC(=O)Oc1cc(OC(C)=O)c2c(=O)c(OC(C)=O)c(-c3ccc(OC(C)=O)c(OC(C)=O)c3)oc2c1 value_kind=inhibition quantitative_result=90
molecule="O=C1c2c(O)cc(O)cc2O[C@H](c2ccc(O)c(O)c2)[C@H]1O [(+)-TAXIFOLIN]" value_kind=inhibition quantitative_result=84
molecule="O=c1c(-c2ccc(O)cc2)coc2cc(O)ccc12 [DAIDZEIN]" value_kind=inhibition quantitative_result=25
molecule="O=c1c(O)c(-c2ccccc2)oc2cc(O)cc(O)c12 [GALANGIN]" value_kind=inhibition quantitative_result=68
molecule=CO/C(=C\c1ccc(OC)c(OC)c1)C(=O)c1c(O)cc(OC)cc1OC value_kind=inhibition quantitative_result=35
molecule="O=c1c(O)c(-c2ccc(O)c(O)c2)oc2cc(O)cc(O)c12 [QUERCETIN]" value_kind=inhibition quantitative_result=84
molecule="O=c1c(O)c(-c2ccc(O)cc2O)oc2cc(O)cc(O)c12 [MORIN]" value_kind=inhibition quantitative_result=99

[in] Please report the recorded inhibition for Oc1cc(O)c2c(c1)O[C@H](c1ccc(O)c(O)c1)[C@@H](O)C2 [CIANIDANOL] .
[out] 0

[in] Please report the recorded inhibition for Oc1cc(O)c2c(c1)O[C@H](c1ccc(O)c(O)c1)[C@H](O)C2 [(-)-EPICATECHIN] .
[out] 7

[in] Please report the recorded inhibition for O=c1c(O)c(-c2ccc(O)cc2)oc2cc(O)cc(O)c12 [KAEMPFEROL] .
[out] 86

[in] Please report the recorded inhibition for O=C(O[C@@H]1Cc2c(O)cc(O)cc2O[C@@H]1c1cc(O)c(O)c(O)c1)c1cc(O)c(O)c(O)c1 [EPIGALOCATECHIN GALLATE] .
[out] 100

====

Experiment: Inhibition of beta amyloid (1 to 40) fibril formation
value_kind: IC50

smiles_code=O=c1c(O)c(-c2ccccc2)oc2cc(O)cc(O)c12 result="Not Active"
smiles_code=COc1ccc(-c2coc3cc(O)ccc3c2=O)cc1O result="Not Active"
smiles_code=O=c1c(-c2ccc(O)cc2)coc2cc(O)ccc12 result=Active
smiles_code=O=c1c(-c2ccc(O)cc2)coc2cc(O)cc(O)c12 result=Active

====

Assay: Inhibition of reduced carboxymethylated kappa-casein fibril formation at 5 ug/mL measured every 5 mins after 1000 mins by thioflavin T staining-based binding assay
Recorded measurements of inhibition, one per entry
The answer is to be given in %; state only the numeric part.

The cases that follow already have their inhibition on record.
smiles_code=O=c1c(O)c(-c2cc(O)c(O)c(O)c2)oc2cc(O)ccc12 value_kind=inhibition units=% quantitative_result=89
smiles_code=COc1ccc(-c2coc3cc(O)ccc3c2=O)cc1O value_kind=inhibition units=% quantitative_result=1
smiles_code=COc1ccc(-c2coc3cc(O)cc(O)c3c2=O)cc1 value_kind=inhibition units=% quantitative_result=0

[in] Please report the recorded inhibition for O=c1c(O)c(-c2ccc(O)cc2)oc2cc(O)ccc12 .
[out] 0

====

Experiment: Inhibition of beta amyloid (1 to 42) fibril formation by thioflavin T staining-based binding assay
Recorded measurements of IC50, one per entry
The answer is to be given in nM; state only the numeric part.

compound="Oc1cc(O)c2c(c1)O[C@H](c1ccc(O)c(O)c1)[C@H](O)C2 [(-)-EPICATECHIN]" value_kind=IC50 units=nM quantitative_result=5600
compound=O=c1c(O)c(-c2ccc(O)cc2)oc2cc(O)cc(O)c12 value_kind=IC50 units=nM quantitative_result=3200
compound=O=c1c(O)c(-c2ccc(O)c(O)c2)oc2cc(O)cc(O)c12 value_kind=IC50 units=nM quantitative_result=720
compound=Oc1cc(O)c2c(c1)O[C@H](c1ccc(O)c(O)c1)[C@@H](O)C2 value_kind=IC50 units=nM quantitative_result=5300
compound=O=c1c(O)c(-c2ccc(O)cc2O)oc2cc(O)cc(O)c12 value_kind=IC50 units=nM quantitative_result=670

Now look at this entry.
[in] Please report the recorded IC50 for O=c1c(O)c(-c2cc(O)c(O)c(O)c2)oc2cc(O)cc(O)c12 .
[out] 400
